Data origin: ChEMBL document CHEMBL1201862

MEASURED_TARGET: Sentrin-specific protease 8 (Homo sapiens, UniProt Q96LD8)
Sequence (Q96LD8 whole entry): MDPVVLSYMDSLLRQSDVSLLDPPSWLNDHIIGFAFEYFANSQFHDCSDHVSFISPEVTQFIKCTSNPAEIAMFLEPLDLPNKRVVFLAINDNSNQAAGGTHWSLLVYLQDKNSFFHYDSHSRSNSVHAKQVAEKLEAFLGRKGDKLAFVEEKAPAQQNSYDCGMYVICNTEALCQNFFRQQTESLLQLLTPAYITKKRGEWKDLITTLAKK
METHOD_NOTES: SENP8 protease inhibitors, SAR follow-up, biochemical, luminescence (AID 504501)
Format: functional
Calls of active or inactive are those of the source. Rule as the data show it: actives have a measured IC50 and inactives only a lower limit.
Write down one outcome, taken from active, inactive

These recorded examples may help you get a feel for the data.
NC(=O)c1ccc(NC(=O)c2ccc3c(c2)OCO3)cc1 inactive
CN(C)c1ccc(/C=C/c2noc(-c3ccccc3O)n2)cc1 active
COC(=O)c1ccccc1NC1=C/C(=N/S(=O)(=O)c2cccs2)c2ccccc2C1=O active

Let's switch to this compound now.
Fill in: this test's call for `Brc1ccc(-c2nc(/C=C/c3ccccc3)no2)cc1` is ___
inactive
